# Tested on: OVCAR-3 ovarian
# assay: NCI-60 one-dose screen, 48 h (100 = growth as untreated, 0 = no growth, -100 = all killed)
# condition summary: 10 µM
This is part of a sample that, as a whole, favours compounds with a hit. Of some 83,000 tested, about 20% had one in any assay. The source made the active and inactive calls. How the source made its calls: active means growth percent below 10; inactive means the rest.
So I've got a bunch of compounds here, and I need their growth values.

QUERY: Return reported growth; argument: CCOC(=O)c1[nH]c(C)c(C(=O)O)c1C
RESULT: 115% (inactive)

QUERY: Return reported growth; argument: O=C(Cc1ccccc1)Cc1ccccc1
RESULT: 106% (inactive)

QUERY: Return reported growth; argument: CCN1C(=O)/C(=C/C=C/N(C)c2ccccc2)SC1=S
RESULT: 81.4% (inactive)

QUERY: Return reported growth; argument: Cc1cc(C)c(N)c(S(=O)(=O)O)c1
RESULT: 113% (inactive)

QUERY: Return reported growth; argument: O=c1cc(-c2ccccc2)[nH]c2c1CCCC2
RESULT: 15.9% (inactive)

QUERY: Return reported growth; argument: COc1cc(CCN=Cc2ccccc2O)c([N+](=O)[O-])cc1OC
RESULT: 101% (inactive)

QUERY: Return reported growth; argument: NC(C(=O)O)C(O)c1ccco1 (stereo not drawn)
RESULT: 117% (inactive)

QUERY: Return reported growth; argument: O=S(=O)(O)c1cc(O)c2c(N=Cc3ccccc3O)c(S(=O)(=O)O)ccc2c1
RESULT: 105% (inactive)

QUERY: Return reported growth; argument: CC(=O)OCCC(C)CCC=C(C)C (stereo not drawn)
RESULT: 121% (inactive)

QUERY: Return reported growth; argument: CC1=CC(C)(C)NC(=S)N1c1ccc(S(=O)(=O)O)c2cccc(S(=O)(=O)O)c12
RESULT: 99.9% (inactive)

QUERY: Return reported growth; argument: CCC(O)CC(CC)CO (stereo not drawn)
RESULT: 130% (inactive)

QUERY: Return reported growth; argument: COCCCC/C(=N\OCCN)c1ccc(C(F)(F)F)cc1
RESULT: 105% (inactive)

QUERY: Return reported growth; argument: CC1NC(=O)NC1CCCCCC(=O)O (stereo not drawn)
RESULT: 108% (inactive)

###

So I've got a bunch of compounds here, and I need their growth values.
# System: HOP-62 NSCLC
# assay: NCI-60 one-dose screen, 48 h (100 = growth as untreated, 0 = no growth, -100 = all killed)
# condition summary: 10 µM
# Protocol: Growth inhibition of the HOP-62 human Non-Small Cell Lung tumor cell line is measured as a screen for anti-cancer activity. Cells are grown in 96 well plates and exposed to the test compound for 48 hours. Compounds are tested at a single concentration, which is 10^-5 M for most compounds. The reported endpoint is percent growth (GI% or GIPRCNT), where numbers from 0 - 100% represent growth inhibition, and numbers from -100% - 0 represent cell death. […]
Compounds without any hit were thinned out: in the full panel of roughly 83,000, 20% have a hit.
Just the number please, in %, no unit attached.

QUERY: Return reported growth; argument: CSC[C@H](NC(=O)COc1cccc2cnccc12)C(=O)NC(Cc1ccccc1)C(O)C(=O)N1CSC[C@H]1C(=O)NC(C)(C)C (some centres not stated)
RESULT: 110

QUERY: Return reported growth; argument: O=c1[nH]n(-c2ccccc2)c(=O)cc1Cl
RESULT: 108

QUERY: Return reported growth; argument: Brc1cnc2ccccc2c1
RESULT: 100

QUERY: Return reported growth; argument: CCOC(=O)/C(=C/c1ccc(OC)cc1)N(CC)CC
RESULT: 103

QUERY: Return reported growth; argument: O=c1cc(-c2ccccc2)oc2c1ccc1ccccc12
RESULT: 99.5

QUERY: Return reported growth; argument: Cc1ccc(S(=O)(=O)O)c(C)c1
RESULT: 94.5

QUERY: Return reported growth; argument: c1ccc(CN2COc3c(ccc4c3OCN(Cc3ccccc3)C4)C2)cc1
RESULT: 26.2
